target: UniProt P46663; experiment: Receptor occupancy efficiency at human BK1 receptor in ex vivo transgenic receptor mouse occupancy model; format: functional
PROPERTY_MEASURED: Occ90 (nM)

{"SMILES_INPUT": "COC(=O)c1c(Cl)cc(Cl)cc1-c1cnc([C@@H](C)NC(=O)C2(NC(=O)C(F)(F)F)CC2)c(F)c1", "UNIT_NAME": "nM", "Occ90": 210}
{"SMILES_INPUT": "COC(=O)c1c(Cl)cccc1-c1ccc([C@@H](C)NC(=O)C2(NC(=O)C(F)(F)F)CC2)c(F)c1", "UNIT_NAME": "nM", "Occ90": 520}
{"SMILES_INPUT": "COC(=O)c1c(Cl)cc(Cl)cc1-c1ccc([C@@H](C)NC(=O)C2(NC(=O)C(F)(F)F)CC2)c(F)c1", "UNIT_NAME": "nM", "Occ90": 450}
{"SMILES_INPUT": "CCOC(=O)c1c(Cl)cccc1-c1cnc([C@@H](C)NC(=O)C2(NC(=O)C(F)(F)F)CC2)c(F)c1", "UNIT_NAME": "nM", "Occ90": 225}

1 = COC(=O)c1c(Cl)cccc1-c1cnc([C@@H](C)NC(=O)C2(NC(=O)C(F)(F)F)CC2)c(F)c1
2 = C[C@@H](NC(=O)C1(NC(=O)C(F)(F)F)CC1)c1ccc(-c2cc(Cl)cc(Cl)c2-c2nnn(C)n2)cc1F
Exercise: Decide: 1 or 2 , by lowest recorded Occ90. Output the label that corresponds to your choice.
Key: 1

====

assay: Apparent permeability of the compound; conditions: not told
PROPERTY_MEASURED: Papp (×10⁻⁶ cm/s)

Examples with answers:
{"SMILES_INPUT": "CCOC(=O)c1c(Cl)cccc1-c1cnc([C@@H](C)NC(=O)C2(NC(=O)C(F)(F)F)CC2)c(F)c1", "UNIT_NAME": "×10⁻⁶ cm/s", "Papp": 28}
{"SMILES_INPUT": "COC(=O)c1c(F)cc(Cl)cc1-c1ccc([C@@H](C)NC(=O)C2(NC(=O)C(F)(F)F)CC2)c(F)c1", "UNIT_NAME": "×10⁻⁶ cm/s", "Papp": 27}
{"SMILES_INPUT": "Cc1nc(-c2c(Cl)cc(Cl)cc2-c2ccc([C@@H](C)NC(=O)C3(NC(=O)C(F)(F)F)CC3)c(F)c2)no1", "UNIT_NAME": "×10⁻⁶ cm/s", "Papp": 23}

I = COC(=O)c1c(Cl)cc(Cl)cc1-c1cnc([C@@H](C)NC(=O)C2(NC(=O)C(F)(F)F)CC2)c(F)c1
II = COC(=O)c1c(Cl)cc(Cl)cc1-c1ccc([C@@H](C)NC(=O)C2(NC(=O)C(F)(F)F)CC2)c(F)c1
Exercise: Select the item whose Papp value is smaller, choosing between I and II . Mark your answer with the label of the selected entry.
Key: II

====

assay: Half life in rhesus monkey at 3 mg/kg, po or 1 mg/kg, iv; details: in vivo
PROPERTY_MEASURED: half-life (h)

{"SMILES_INPUT": "COC(=O)c1c(Cl)cc(Cl)cc1-c1ccc([C@@H](C)NC(=O)C2(NC(=O)C(F)(F)F)CC2)c(F)c1", "half-life [h]": 3.9}

1 = COC(=O)c1c(Cl)cc(Cl)cc1-c1cnc([C@@H](C)NC(=O)C2(NC(=O)C(F)(F)F)CC2)c(F)c1
2 = CCOC(=O)c1c(Cl)cccc1-c1cnc([C@@H](C)NC(=O)C2(NC(=O)C(F)(F)F)CC2)c(F)c1
Exercise: Lab note: check whether 1 or 2 has the lower measured half-life. Pick one and reply with its label.
Key: 2
(2: 1.1 h, 1: 2.5 h)

====

experiment: Clearance in Sprague-Dawley rat at 10 mg/kg, po or 2 mg/kg, iv; settings: in vivo
PROPERTY_MEASURED: clearance (mL/min/kg)

P = COC(=O)c1c(Cl)cc(Cl)cc1-c1cnc([C@@H](C)NC(=O)C2(NC(=O)C(F)(F)F)CC2)c(F)c1
Q = Cc1nc(-c2c(Cl)cc(Cl)cc2-c2ccc([C@@H](C)NC(=O)C3(NC(=O)C(F)(F)F)CC3)c(F)c2)no1
Exercise: Name the one with the greater clearance value, either P or Q as given. State the label of the item chosen.
Key: P

====

assay: Partition coefficient, log P of the compound; details: octanol/water
PROPERTY_MEASURED: logP

{"SMILES_INPUT": "CCOC(=O)c1c(Cl)cccc1-c1cnc([C@@H](C)NC(=O)C2(NC(=O)C(F)(F)F)CC2)c(F)c1", "logP": 3.6}
{"SMILES_INPUT": "COC(=O)c1c(Cl)cc(Cl)cc1-c1cnc([C@@H](C)NC(=O)C2(NC(=O)C(F)(F)F)CC2)c(F)c1", "logP": 3.3}

====

Values of Ki reported for B1 bradykinin receptor (Homo sapiens) appear below.
PROPERTY_MEASURED: Ki (nM)

{"SMILES_INPUT": "C[C@@H](NC(=O)C1(NC(=O)C(F)(F)F)CC1)c1ncc(-c2cc(Cl)cc(Cl)c2-c2nnn(C)n2)cc1F", "EXPERIMENTAL_VALUE": 3.8}

1 = COC(=O)c1cc(Cl)ccc1-c1ccc([C@@H](C)NC(=O)C2(NC(=O)C(F)(F)F)CC2)c(F)c1
2 = C[C@@H](NC(=O)C1(NC(=O)C(F)(F)F)CC1)c1ccc(-c2cc(Cl)ccc2-c2nnn(C)n2)cc1F
Exercise: In the pair 1 and 2 , the larger recorded Ki belongs to which? State the label of the item chosen.
Key: 1

====

assay: Clearance in Sprague-Dawley rat at 10 mg/kg, po or 2 mg/kg, iv; settings: in vivo
PROPERTY_MEASURED: clearance (mL/min/kg)

I = COC(=O)c1c(F)cc(Cl)cc1-c1ccc([C@@H](C)NC(=O)C2(NC(=O)C(F)(F)F)CC2)c(F)c1
II = CCOC(=O)c1c(Cl)cccc1-c1cnc([C@@H](C)NC(=O)C2(NC(=O)C(F)(F)F)CC2)c(F)c1
III = C[C@@H](NC(=O)C1(NC(=O)C(F)(F)F)CC1)c1ccc(-c2cc(Cl)cc(F)c2-c2nnn(C)n2)cc1F
Exercise: Parameters: sort_by = clearance; order = desc; input = items above. Please express your ranking as an ordered list of the labels.
Key: I, II, III
